Assay: self-splicing fitness, log relative to wild type (ln ratio); higher = more splicing; Tetrahymena group I intron in knt gene, E. coli kanamycin selection, DiMSum; sequences stand for … in CUCUCU…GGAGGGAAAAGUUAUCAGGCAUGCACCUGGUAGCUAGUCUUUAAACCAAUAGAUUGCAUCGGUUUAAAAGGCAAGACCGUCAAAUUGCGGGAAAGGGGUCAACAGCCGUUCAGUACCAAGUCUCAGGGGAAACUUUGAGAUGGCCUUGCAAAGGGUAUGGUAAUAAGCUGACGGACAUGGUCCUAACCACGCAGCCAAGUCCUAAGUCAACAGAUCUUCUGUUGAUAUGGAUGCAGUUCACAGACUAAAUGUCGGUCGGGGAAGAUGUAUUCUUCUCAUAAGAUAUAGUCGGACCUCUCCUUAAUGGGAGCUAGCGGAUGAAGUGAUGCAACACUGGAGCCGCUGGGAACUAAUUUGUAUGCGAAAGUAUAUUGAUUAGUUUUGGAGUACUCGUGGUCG;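 also: selection with 25 µg/mL kanamycin versus none on LB agar overnight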
Conditions: 30 °C
Hi there, I'd appreciate the recorded self-splicing fitness (ln) for every entry that follows.
Field format: numeric only.

Which measured self-splicing fitness (ln) value corresponds to `CUCAAGCAAUAUUACGUAUG` ?
-2.91

Quick one: self-splicing fitness (ln) for `ACACAGCAAUAUUACGUCGG` ?
-1.65

Recorded self-splicing fitness (ln) of `ACCGAGCAAUAUUACGUCUG` , please.
-2.37

Look up self-splicing fitness (ln): `AGACAGCAAUAUUACGGCGU`
-0.937

Which self-splicing fitness (ln) value belongs to `UAUCAGCAAUAUUACGUAAA` ?
-0.89

Quick check: self-splicing fitness (ln) of `UCUUAGCAAUAUUACGACAA` ?
-2.45

Fill in the blank: the reported self-splicing fitness (ln) of `CUCGAGCAAUAUUACGUAAG` is ____.
-2.81

Request the reported self-splicing fitness (ln) associated with `UUGGAGCAAUAUUACGACAU`
-1.81

For the sequence `UGAUAGCAAUAUUACGUAUG` , what self-splicing fitness (ln) is on record?
-1.1

What does the data say about its self-splicing fitness (ln)? Entry: `CCCCAGCAAUAUUACGAGUC`
-3.78

Tell me the measured self-splicing fitness (ln) of `CUAAAGCAAUAUUACGAGUG` , please.
0.178

Please look up its self-splicing fitness (ln): `CUAUAGCAAUAUUACGUAUA`
-3.27

Please look up its self-splicing fitness (ln): `CAAUAGCAAUAUUACGCUAG`
-2.49

Look up self-splicing fitness (ln): `GGACAGCAAUAUUACGAGGG`
-3.16

self-splicing fitness (ln) lookup needed for `GUAUAGCAAUAUUACGCGUA` , thanks.
-2.69

# query: self-splicing fitness (ln) of entry `UUCCAGCAAUAUUACGGUUG`
-2.43

* * *

Assay: self-splicing fitness, log relative to wild type (ln ratio); higher = more splicing; Tetrahymena group I intron in knt gene, E. coli kanamycin selection, DiMSum; sequences stand for … in CUCUCU…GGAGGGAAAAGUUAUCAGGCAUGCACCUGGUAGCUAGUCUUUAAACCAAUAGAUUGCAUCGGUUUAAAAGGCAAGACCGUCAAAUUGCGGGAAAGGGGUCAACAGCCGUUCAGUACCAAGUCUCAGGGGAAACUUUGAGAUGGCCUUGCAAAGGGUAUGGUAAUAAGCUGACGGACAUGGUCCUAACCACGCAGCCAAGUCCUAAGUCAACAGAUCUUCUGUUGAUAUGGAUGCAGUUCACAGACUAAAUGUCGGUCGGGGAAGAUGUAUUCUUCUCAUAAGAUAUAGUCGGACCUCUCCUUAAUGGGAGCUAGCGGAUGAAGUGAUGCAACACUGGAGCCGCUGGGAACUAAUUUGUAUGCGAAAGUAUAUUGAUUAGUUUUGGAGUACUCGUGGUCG
Details: 37 °C
Classify by measured self-splicing fitness (ln): Y if it is equal to or exceeds -2, N if it is smaller.

Textbook exercise: given the entry `CCCGAGCAAUAUUACGAAUU` , state whether its self-splicing fitness (ln) is greater than or equal to -2.
N

Hello, I need to know if `UCCUAGCAAUAUUACGGGGG` has measured self-splicing fitness (ln) not below -2. Thanks!
N

# bool: self-splicing fitness (ln) of `GUAAAGCAAUAUUACGACUU` >= -2
Y

Does the sequence `UACGAGCAAUAUUACGCAUA` have recorded self-splicing fitness (ln) that is -2 or more?
Y

Hi team, for `CCCGAGCAAUAUUACGAGGC` , is the recorded self-splicing fitness (ln) at or above -2?
N

Please tell me: is the sequence `UUCCAGCAAUAUUACGUCAU` at or over -2 in terms of self-splicing fitness (ln)?
N

Could you tell me if the measured self-splicing fitness (ln) of `AUCUAGCAAUAUUACGCUCG` reaches -2 or more?
Y

Hi team, for `AGAGAGCAAUAUUACGUAUG` , is the recorded self-splicing fitness (ln) at or above -2?
N

Check this sequence for self-splicing fitness (ln) at or above -2: `CCCCAGCAAUAUUACGACCU`
N

Is self-splicing fitness (ln) for `UAAAAGCAAUAUUACGUUGC` at or above -2?
N

Could you tell me if the measured self-splicing fitness (ln) of `UUCUAGCAAUAUUACGAUGU` reaches -2 or more?
Y

Is it the case that `ACGAAGCAAUAUUACGACGU` has self-splicing fitness (ln) reaching or exceeding -2?
Y

Confirm if self-splicing fitness (ln) reported for the sequence `CCGAAGCAAUAUUACGUAGA` is -2 or above.
Y

Does the sequence `UCCGAGCAAUAUUACGAUCG` have recorded self-splicing fitness (ln) that is -2 or more?
N

Please tell me: is the sequence `AUAUAGCAAUAUUACGGUCU` at or over -2 in terms of self-splicing fitness (ln)?
Y

Entry `GGAUAGCAAUAUUACGGCGC` : is its self-splicing fitness (ln) no less than -2?
Y

Please check the record `CUUUAGCAAUAUUACGUACU` and state if its self-splicing fitness (ln) is at or above -2.
N

Hi, just wondering whether `GGGCAGCAAUAUUACGCCUC` shows self-splicing fitness (ln) of -2 or higher.
Y

Could you please find out whether `AAGAAGCAAUAUUACGGAUU` has self-splicing fitness (ln) that meets -2 or exceeds it?
Y

Is the recorded value of self-splicing fitness (ln) equal to or greater than -2 for this sequence? `AAGCAGCAAUAUUACGGUAC`
N

State whether the measured self-splicing fitness (ln) reaches -2, counting equality as reaching it, for `AUUAAGCAAUAUUACGGCUU`
Y

Can `CACAAGCAAUAUUACGGCCG` be said to have self-splicing fitness (ln) at or above -2?
Y

Is the recorded value of self-splicing fitness (ln) equal to or greater than -2 for this sequence? `GUAUAGCAAUAUUACGGGUC`
Y

Item `ACAUAGCAAUAUUACGUUAU` with self-splicing fitness (ln) of -2 or above?
N

Quick check: does `CGUAAGCAAUAUUACGGCUC` have self-splicing fitness (ln) greater than or equal to -2?
Y

Form field: self-splicing fitness (ln) at least -2? Entry: `CCUCAGCAAUAUUACGUCGU`
N

Hi team, for `CCUGAGCAAUAUUACGAUGA` , is the recorded self-splicing fitness (ln) at or above -2?
Y

API: above_or_equal(metric=self-splicing fitness (ln), cutoff=-2) for item `CGCCAGCAAUAUUACGUGUU`
N

Could you tell me if the measured self-splicing fitness (ln) of `AAACAGCAAUAUUACGUGAU` reaches -2 or more?
Y

Test whether the sequence `CUUCAGCAAUAUUACGGGCA` records self-splicing fitness (ln) of -2 or higher.
N

Does the reported self-splicing fitness (ln) for `CCGAAGCAAUAUUACGUACG` fall at or above the -2 mark?
Y

Determine whether this sequence has self-splicing fitness (ln) no lower than -2: `AAUAAGCAAUAUUACGGUAC`
Y

Given `GGUGAGCAAUAUUACGGGCU` , state whether its self-splicing fitness (ln) is at least -2.
N

self-splicing fitness (ln) >= -2 for `CGGUAGCAAUAUUACGCUAC` ?
N

Does self-splicing fitness (ln) meet or surpass -2 for `UUACAGCAAUAUUACGGCGG` ?
Y

Kindly determine if self-splicing fitness (ln) recorded for `UAUAAGCAAUAUUACGGCAU` is above or exactly -2.
Y

Quick check, self-splicing fitness (ln) >= -2? `GUCUAGCAAUAUUACGAUUG`
N

Kindly determine if self-splicing fitness (ln) recorded for `AAUUAGCAAUAUUACGACGG` is above or exactly -2.
Y

Is it the case that `GAAGAGCAAUAUUACGUUUG` has self-splicing fitness (ln) reaching or exceeding -2?
N

Is the recorded value of self-splicing fitness (ln) equal to or greater than -2 for this sequence? `AUCCAGCAAUAUUACGAUUU`
Y

In plain terms: is recorded self-splicing fitness (ln) at least -2 for `UGUCAGCAAUAUUACGGACA` ?
Y

State whether the measured self-splicing fitness (ln) reaches -2, counting equality as reaching it, for `AUCCAGCAAUAUUACGCUCC`
Y

Assess whether reported self-splicing fitness (ln) for `UGCCAGCAAUAUUACGUUGG` sits at -2 or higher.
N

Hi team, for `ACGUAGCAAUAUUACGCAAG` , is the recorded self-splicing fitness (ln) at or above -2?
N

// inclusive: self-splicing fitness (ln) at least -2? input: `AUGUAGCAAUAUUACGUCCA`
Y

For this sequence, is measured self-splicing fitness (ln) -2 or higher? `GACCAGCAAUAUUACGAGUA`
Y

Threshold query (self-splicing fitness (ln) >= -2) on `CCCCAGCAAUAUUACGCAUC`
N

Tell me whether self-splicing fitness (ln) is at least -2 here: `CUCGAGCAAUAUUACGGGAA`
N

Textbook exercise: given the entry `CAGCAGCAAUAUUACGAGAC` , state whether its self-splicing fitness (ln) is greater than or equal to -2.
N

Given the entry `GCGGAGCAAUAUUACGCGCA` , answer whether its self-splicing fitness (ln) meets or surpasses -2.
Y

Evaluate `CGUAAGCAAUAUUACGAUUA` : self-splicing fitness (ln) at minimum -2?
Y

Textbook exercise: given the entry `AUUCAGCAAUAUUACGAGGC` , state whether its self-splicing fitness (ln) is greater than or equal to -2.
Y

self-splicing fitness (ln) >= -2 for `CGGCAGCAAUAUUACGAUAU` ?
Y

API: above_or_equal(metric=self-splicing fitness (ln), cutoff=-2) for item `UAUGAGCAAUAUUACGAAGA`
Y

Say whether `GCUCAGCAAUAUUACGUAAA` shows self-splicing fitness (ln) of -2 or more.
Y

Does `AGCGAGCAAUAUUACGAGCU` have a reported self-splicing fitness (ln) of at least -2?
N

Does self-splicing fitness (ln) meet or surpass -2 for `GCUCAGCAAUAUUACGAUCG` ?
Y

Quick check: does `ACGUAGCAAUAUUACGAUCA` have self-splicing fitness (ln) greater than or equal to -2?
Y

Can `AAACAGCAAUAUUACGUGCA` be said to have self-splicing fitness (ln) at or above -2?
Y

Item `AACAAGCAAUAUUACGCCCA` with self-splicing fitness (ln) of -2 or above?
Y

Hi, just wondering whether `AUCCAGCAAUAUUACGGAUA` shows self-splicing fitness (ln) of -2 or higher.
Y

In plain terms: is recorded self-splicing fitness (ln) at least -2 for `ACGCAGCAAUAUUACGUCUA` ?
Y

Tell me whether self-splicing fitness (ln) is at least -2 here: `CUUCAGCAAUAUUACGUGAU`
N

Please check the record `GUUGAGCAAUAUUACGGUGC` and state if its self-splicing fitness (ln) is at or above -2.
N

The measured values listed here are drawn from the supplement of paper PMC7877785.
